Overview of reported pIC50 across a group of compounds:
# tested.system: human IDO1 (Homo sapiens, UniProt P14902)
# Sequence (P14902 whole entry): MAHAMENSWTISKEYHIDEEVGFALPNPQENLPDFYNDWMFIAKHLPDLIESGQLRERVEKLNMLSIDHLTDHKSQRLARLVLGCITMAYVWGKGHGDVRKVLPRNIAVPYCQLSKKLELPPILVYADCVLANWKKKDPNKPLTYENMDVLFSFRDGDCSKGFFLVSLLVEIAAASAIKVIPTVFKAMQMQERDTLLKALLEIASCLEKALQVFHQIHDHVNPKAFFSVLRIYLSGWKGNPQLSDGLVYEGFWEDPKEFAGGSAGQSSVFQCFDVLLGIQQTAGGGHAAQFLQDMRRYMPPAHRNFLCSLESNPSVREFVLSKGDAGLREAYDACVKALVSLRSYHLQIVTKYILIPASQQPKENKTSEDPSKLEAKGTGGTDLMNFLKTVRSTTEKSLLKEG
# assay.comment: human IDO1/HEK293 cell IDO inhibition assay
# settings: HEK293 cells stably expressing human IDO1, 20 hours incubation, absorbance at 490 nm; read-out: IDO1 HEK Human IC50
pIC50: −log10 of the molar value.
observable: pIC50

>>> df
                                   compound  observable  assay_result
0  C[C@@H](c1nc2ccc(Cl)cc2[nH]1)[C@H]1CC[C@@]2(CC1)COc1ccccc12       pIC50          6.85
1  C[C@@H](C(=O)Nc1ccc(Cl)cc1)[C@H]1CC[C@@]2(CC1)COc1ccccc12       pIC50          8.10
2  Cc1cccc2c1[C@]1(CC[C@H](C(C)C(=O)NC34CC5CC(CC(C5)C3)C4)CC1)OC2 (mixture of isomers)       pIC50          6.21
3  CC(NC(=O)c1ccc(Cl)cc1)[C@H]1CC[C@]2(CC1)COc1ccccc12 (mixture of isomers)       pIC50          7.23
4  Cc1cccc2c1[C@]1(CC[C@@H](C(C)C(=O)Nc3ccc(Cl)cc3)CC1)OC2 (mixture of isomers)       pIC50          7.43
5  CC(C(=O)Nc1ccc(Cl)cc1)[C@H]1CC[C@@]2(CC1)COc1ccccc12 (mixture of isomers)       pIC50          8.30
6  O=C(C[C@H]1CC[C@]2(CC1)OCc1ccccc12)Nc1ccc(Cl)cc1       pIC50          6.29

---

# tested.system: human IDO1 (Homo sapiens, UniProt P14902)
# assay.comment: human IDO1/HEK293 cell IDO inhibition assay
# settings: HEK293 cells stably expressing human IDO1, 20 hours incubation, absorbance at 490 nm; read-out: IDO1 HEK Human IC50
pIC50: −log10 of the molar value.
observable: pIC50

                                   compound                             tested_system  assay_result
0  C[C@H](c1nc2ccc(Cl)cc2[nH]1)[C@H]1CC[C@@]2(CC1)COc1ccccc12  human IDO1 (Homo sapiens, UniProt P14902)          6.60
1  C[C@H](c1nc2ncc(Cl)cc2[nH]1)[C@H]1CC[C@@]2(CC1)COc1ccccc12  human IDO1 (Homo sapiens, UniProt P14902)          7.37
2  O=C(C[C@H]1CC[C@@]2(CC1)OCc1ccccc12)Nc1ccc(Cl)cc1  human IDO1 (Homo sapiens, UniProt P14902)          7.00
3  CC(NC(=O)c1ccc(C#N)cc1)[C@H]1CC[C@]2(CC1)COc1ccccc12 (mixture of isomers)  human IDO1 (Homo sapiens, UniProt P14902)          7.03

---

# tested.system: human IDO1 (Homo sapiens)
# assay.comment: human IDO1/HEK293 cell IDO inhibition assay
# settings: HEK293 cells stably expressing human IDO1, 20 hours incubation, absorbance at 490 nm; read-out: IDO1 HEK Human IC50
Structures can show the parent of a compound that is named as a salt.
observable: log10 of IC50 (log10 of the value in nM)

>>> df
                                    compound     observable  assay_result
 0  CC(NC(=O)c1ccc(Cl)cc1)[C@H]1CC[C@@]2(CC1)COc1ccccc12 (mixture of isomers) [Example 17]  log10 of IC50          1.77
 1  C[C@H](C(=O)Nc1ccc(Cl)cc1)[C@H]1CC[C@@]2(CC1)COc1ccccc12 [Example 15]  log10 of IC50          1.23
 2  C[C@@H](NC(=O)c1ccc(Cl)cc1)[C@H]1CC[C@@]2(CC1)COc1ccccc12 [Example 18]  log10 of IC50          0.95
 3  C[C@H](NC(=O)c1ccc(Cl)cc1)[C@H]1CC[C@@]2(CC1)COc1ccccc12 [Example 19]  log10 of IC50          2.96
 4  CC(C(=O)Nc1ccc(Cl)cc1)[C@H]1CC[C@]2(CC1)COc1ccccc12 (mixture of isomers) [Example 20]  log10 of IC50          1.79
 5  C[C@@H](c1nc2ncc(Cl)cc2[nH]1)[C@H]1CC[C@@]2(CC1)COc1ccccc12 [Example 25]  log10 of IC50          2.90
 6  Cc1cccc2c1OC(CO)[C@]21CC[C@@H](CC(=O)Nc2ccc(Cl)cc2)CC1 (mixture of isomers) [Example 30]  log10 of IC50          2.56
 7  CC(c1nc2ncc(Cl)cc2[nH]1)[C@H]1CC[C@@]2(CC1)COc1ccccc12 (mixture of isomers) [Example 24, TFA Salt]  log10 of IC50          2.07
 8  Cc1cccc2c1[C@]1(CC[C@H](C(C)C(=O)NC3(C)CCCCC3)CC1)OC2 (mixture of isomers) [Example 10]  log10 of IC50          2.99
 9  Cc1cccc2c1[C@]1(CC[C@H](C(C)C(=O)Nc3ccc(Cl)cc3)CC1)OC2 (mixture of isomers) [Example 8]  log10 of IC50          1.38
10  Cc1cccc2c1OC(CO)[C@]21CC[C@H](CC(=O)Nc2ccc(Cl)cc2)CC1 (mixture of isomers) [Example 29]  log10 of IC50          1.83
